Assay: Induction of heparan sulphate synthesis in human CCD-1095SK cells assessed as proportion of heparan sulphate of total GAGs
Type: functional
Set-up: concentration or dose not given beside the values
Consider the following compounds; for each one, report its Activity.
Give bare numbers, in %.

The cases that follow already have their Activity on record.
1. O[C@@H]1[C@@H](O)[C@H](Oc2ccc3ccccc3c2)OC[C@H]1O    3
2. O[C@@H]1[C@@H](O)[C@H](OCCOCCOCCOc2ccc3ccccc3c2)OC[C@H]1O    20
3. O[C@@H]1[C@@H](O)[C@H](OCc2ccc3ccccc3c2)OC[C@H]1O    7
4. Oc1ccc2cc(OCCO[C@@H]3OC[C@@H](O)[C@H](O)[C@H]3O)ccc2c1    26
5. Oc1ccc2cc(O[C@@H]3OC[C@@H](O)[C@H](O)[C@H]3O)ccc2c1    6

# return Activity for each item in the list
1. Oc1ccc2cc(CO[C@@H]3OC[C@@H](O)[C@H](O)[C@H]3O)ccc2c1
2. O[C@@H]1[C@@H](O)[C@H](OCCOCCOc2ccc3ccccc3c2)OC[C@H]1O
3. O[C@@H]1[C@@H](O)[C@H](OCCOc2ccc3ccccc3c2)OC[C@H]1O

Result ::
1. 7
2. 2
3. 3

Taken from ChEMBL document CHEMBL2384901.
